target: Serine/threonine-protein kinase Chk2 (Homo sapiens); assay: Inhibition of CHK2 at 10 uM by HTRF assay relative to control
endpoint: inhibition (%)

| compound | result |
| --- | --- |
| COC[C@@H]1CCCN1C(=O)[C@@H]1CCCN1c1cc(Nc2cccc(OC)c2)nc(N)n1 | 0 |
| Cc1cccc(Oc2ccnc(N3CCN(CC(=O)Nc4cccc5c4CCCC5)CC3)n2)c1 | 3 |
| CN(C)CC(C)(C)CNC(=O)[C@@H]1CCCN1c1nccc(Nc2ccccc2)n1 | 0 |
| Cc1cccc(Oc2ccnc(N3CCC[C@H]3C(=O)NCc3cccnc3)n2)c1 | 4 |
| O=C(CN1CCN(c2ncnc3c2CN(Cc2ccccc2)CC3)CC1)Nc1cc(F)ccc1F | 5 |
| CC(=O)CCCCC(=O)N1CCN(c2nccc(Oc3cccc(C)c3)n2)CC1 | 0 |
| COc1cccc(Nc2cc(Nc3cccc(C(=O)N(C)CCc4ccccn4)c3)nc(N)n2)c1 | 4 |
| O=C(C1CCN(c2nccc(Nc3ccccc3)n2)CC1)N1CC[C@@H](O)C1 | 0 |
| CN(CCc1ccccn1)C(=O)c1cccc(Nc2nccc(Nc3ccc4ncsc4c3)n2)c1 | 7 |
| Cc1cccc(Nc2nccc3c2CN(C(=O)c2cc(C)n(C)c2C)CC3)c1 | 0 |
| Cc1cccc(N(C)c2cc(N3CCN(CC(=O)Nc4nc(-c5ccccc5)cs4)CC3)ncn2)c1 | 0 |
| Cc1cccc(Nc2cc(Nc3cccc(C(=O)N(CC(C)O)CC(C)O)c3)ncn2)c1 (centres undefined) | 1 |
| O=C(c1nc(SCc2ccc(Cl)cc2)n2ccccc12)N1CCN(c2ncnc3c2CN(Cc2ccccc2)CC3)CC1 | 0 |
| Cc1cccc(Nc2nccc(Nc3cccc(C(=O)NCc4ccc(N(C)C)cc4)c3)n2)c1 | 0 |
| O=C(NCc1ccncc1)c1cccc(Nc2cc(Nc3cccc(Br)c3)ncn2)c1 | 0 |
| CN(CCc1ccccn1)C(=O)[C@@H]1CCCN1c1nccc(Nc2ccccc2)n1 | 3 |
| Cc1cccc(N(C)c2cc(Nc3cccc(C(=O)NCc4ccncc4)c3)ncn2)c1 | 5 |
| CN(C)CC(C)(C)CNC(=O)C1CCN(c2cc(N3CCOCC3)nc(N)n2)CC1 | 2 |
| Cc1cccc(Oc2ccnc(N3CCC[C@H]3C(=O)NCCCn3ccnc3)n2)c1 | 0 |
| Cc1cccc(Oc2ccnc(N3CCN(C(=O)c4c(C)noc4C)CC3)n2)c1 | 3 |
| COc1ccc(NC(=O)Cc2ccc(Nc3cc(N(C)c4cccc(C)c4)ncn3)cc2)cn1 | 1 |
| Cc1cccc(N(C)c2cc(Nc3cccc(C(=O)N4CCCC5CCCCC54)c3)ncn2)c1 (centres undefined) | 2 |
| Cc1cccc(CN2CCN(c3cc(N(C)c4cccc(C)c4)ncn3)CC2)c1 | 2 |
| O=C(NCc1cccnc1)c1cccc(-c2ccc(Nc3ccc4ncsc4c3)nn2)c1 | 28 |
| COc1cccc(Nc2cc(Nc3cccc(C(=O)NCCCn4ccnc4)c3)nc(N)n2)c1 | 3 |
| Cc1cccc(N(C)c2cc(Nc3ccc(CC(=O)Nc4ccc5ncsc5c4)cc3)ncn2)c1 | 0 |
| COC[C@@H]1CCCN1C(=O)[C@@H]1CCCN1c1nccc(Nc2ccccc2)n1 | 3 |
| Clc1ccc2sc(CN3CCN(c4ncnc5c4CN(Cc4ccccc4)CC5)CC3)cc2c1 | 0 |
| Cc1cccc(Nc2nccc(Nc3cccc(C(=O)N(C)CCc4ccccn4)c3)n2)c1 | 0 |

// data source = ChEMBL document CHEMBL1150387
